Reference for the values: the supplement of paper PMC10065799

Assign phosphorylation enrichment to each entry below.
System: c-Src
ASSAY_COMMENT: phosphorylation enrichment, bacterial display (enrichment ratio); higher = better substrate or ligand; peptides without Tyr show the background;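 further: 11-residue human phosphosite peptides and single-mutation variants displayed on the E. coli surface, counted by deep sequencing, each peptide's frequency after selection divided by its frequency in the unselected input library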;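 further: frequency after pTyr selection over input frequency; kinase dosed for 20-30% of maximal phosphorylation in three min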
Give bare numbers.

Guide cases for phosphorylation enrichment, answers given:
CHAIN_SEQUENCE | phosphorylation enrichment
DFGSGYPNDPK [RNASEH2A_Y210_YF] | 0.464
EAIAKYDFKAT [GRB2_Y7] | 0.393

Provide each entry's phosphorylation enrichment from the list below.
1. SEKVVYRRFTE [NCF1_Y41]
2. ATARPYRPFII [LRP5_Y1528_YF]
3. KLSCSYSHLSA [C4BPA_Y470_W473L]
4. GFIISYREEEQ

[0.438, 0.389, 0.584, 0.399]

Provide each entry's phosphorylation enrichment from the list below.
1. RNLDTYQKRLR [PLA2G2D_Y126]
2. LAARFYNWVSF [FLT4_Y1231_YF]

1: 0.463; 2: 0.82

###

Assign phosphorylation enrichment to each entry below.
SUBJECT_OF_TEST: Fes (UniProt P07332)
Sequence (P07332 whole entry, looked up): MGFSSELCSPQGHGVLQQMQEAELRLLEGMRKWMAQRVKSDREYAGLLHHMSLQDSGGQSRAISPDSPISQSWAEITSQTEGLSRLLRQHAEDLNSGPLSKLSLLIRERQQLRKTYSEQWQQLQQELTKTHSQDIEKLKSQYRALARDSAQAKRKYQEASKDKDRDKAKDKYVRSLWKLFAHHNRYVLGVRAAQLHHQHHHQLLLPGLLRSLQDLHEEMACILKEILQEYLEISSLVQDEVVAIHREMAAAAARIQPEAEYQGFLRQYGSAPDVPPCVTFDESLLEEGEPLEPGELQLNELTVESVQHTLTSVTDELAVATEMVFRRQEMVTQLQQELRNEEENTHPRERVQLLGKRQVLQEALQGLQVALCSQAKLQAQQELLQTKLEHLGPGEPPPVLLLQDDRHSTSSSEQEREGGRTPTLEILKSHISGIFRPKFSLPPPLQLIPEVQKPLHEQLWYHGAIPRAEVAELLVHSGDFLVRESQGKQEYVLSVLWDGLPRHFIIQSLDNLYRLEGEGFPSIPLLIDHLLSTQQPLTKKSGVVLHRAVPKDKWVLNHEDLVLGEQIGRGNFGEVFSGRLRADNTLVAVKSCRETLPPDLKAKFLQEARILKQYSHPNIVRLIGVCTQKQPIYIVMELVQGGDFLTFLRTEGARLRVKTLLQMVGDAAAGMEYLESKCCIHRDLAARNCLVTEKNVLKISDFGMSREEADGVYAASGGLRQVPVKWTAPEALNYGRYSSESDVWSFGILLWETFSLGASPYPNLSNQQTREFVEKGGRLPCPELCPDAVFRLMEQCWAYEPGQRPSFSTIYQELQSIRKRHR
ASSAY_COMMENT: phosphorylation enrichment, bacterial display (enrichment ratio); higher = better substrate or ligand; peptides without Tyr show the background
One number for each entry.

Guide cases for phosphorylation enrichment, answers given:
CHAIN_SEQUENCE | phosphorylation enrichment
EKEKEYMLPLD [DNM2_Y563_K562E] | 0.959
RFQKLYLDRNL [IGFALS_Y248_L244F] | 0.761
PAVGIYNGNIN [CDCP1_Y707_D709G] | 1.15
LRLSSYSTTIR [CYP7B1_Y365] | 1.1
IRKKYYRAILE [CHD7_Y1218_Q1214R] | 0.581
ELTTCYRKKCS [CCBE1_Y70_C75S] | 0.816
QTLTDYDTRFY [CSNK2A3_Y131_I133T] | 1.25
ETAENYLGYTA [HSPA9_Y181_H184Y] | 1.23

Provide each entry's phosphorylation enrichment from the list below.
1. EILLSDLRTGF [TGM1_Y365_Y365D_YF]
2. KRLKDYLTVLQ [USP25_Y425]

1: 0.891; 2: 0.664

Provide each entry's phosphorylation enrichment from the list below.
1. GEIQEYGAPSD [ABCC1_Y1508]
2. KEAQVYQAFKL [SUCLG2_Y343]
3. RNLDTYQKRLR [PLA2G2D_Y126]
4. RPGSGYTKIMR [PKLR_Y564_N566K]
5. IRTDAYVPAMT [RPE65_Y89_R91P]
6. LNRAGYCDALE [MTUS1_Y151_C148R]
7. PEEKVYLSRGD [CRACR2A_Y141_H136P]

1: 1.05; 2: 1.05; 3: 0.61; 4: 0.525; 5: 0.612; 6: 1.12; 7: 1.77

Provide each entry's phosphorylation enrichment from the list below.
1. SKHHLYSDLQT [PTCHD1_Y84_R82H]
2. FIATQYSLRPR [LBR_Y166_YF]
3. FSEVRYVKEPF [HIPK4_Y170_YF]
4. TLLERYGMTKI [ACSF3_Y355_E359K]
5. KYLENYYDLEK [MMP3_Y41_K45E]
6. SLFNGYVFSGV [NEIL3_Y71_YF]

0.786
0.671
0.831
0.734
1.3
0.77

###

SUBJECT_OF_TEST: Jak2 (UniProt O60674)
Sequence (O60674 whole entry, looked up): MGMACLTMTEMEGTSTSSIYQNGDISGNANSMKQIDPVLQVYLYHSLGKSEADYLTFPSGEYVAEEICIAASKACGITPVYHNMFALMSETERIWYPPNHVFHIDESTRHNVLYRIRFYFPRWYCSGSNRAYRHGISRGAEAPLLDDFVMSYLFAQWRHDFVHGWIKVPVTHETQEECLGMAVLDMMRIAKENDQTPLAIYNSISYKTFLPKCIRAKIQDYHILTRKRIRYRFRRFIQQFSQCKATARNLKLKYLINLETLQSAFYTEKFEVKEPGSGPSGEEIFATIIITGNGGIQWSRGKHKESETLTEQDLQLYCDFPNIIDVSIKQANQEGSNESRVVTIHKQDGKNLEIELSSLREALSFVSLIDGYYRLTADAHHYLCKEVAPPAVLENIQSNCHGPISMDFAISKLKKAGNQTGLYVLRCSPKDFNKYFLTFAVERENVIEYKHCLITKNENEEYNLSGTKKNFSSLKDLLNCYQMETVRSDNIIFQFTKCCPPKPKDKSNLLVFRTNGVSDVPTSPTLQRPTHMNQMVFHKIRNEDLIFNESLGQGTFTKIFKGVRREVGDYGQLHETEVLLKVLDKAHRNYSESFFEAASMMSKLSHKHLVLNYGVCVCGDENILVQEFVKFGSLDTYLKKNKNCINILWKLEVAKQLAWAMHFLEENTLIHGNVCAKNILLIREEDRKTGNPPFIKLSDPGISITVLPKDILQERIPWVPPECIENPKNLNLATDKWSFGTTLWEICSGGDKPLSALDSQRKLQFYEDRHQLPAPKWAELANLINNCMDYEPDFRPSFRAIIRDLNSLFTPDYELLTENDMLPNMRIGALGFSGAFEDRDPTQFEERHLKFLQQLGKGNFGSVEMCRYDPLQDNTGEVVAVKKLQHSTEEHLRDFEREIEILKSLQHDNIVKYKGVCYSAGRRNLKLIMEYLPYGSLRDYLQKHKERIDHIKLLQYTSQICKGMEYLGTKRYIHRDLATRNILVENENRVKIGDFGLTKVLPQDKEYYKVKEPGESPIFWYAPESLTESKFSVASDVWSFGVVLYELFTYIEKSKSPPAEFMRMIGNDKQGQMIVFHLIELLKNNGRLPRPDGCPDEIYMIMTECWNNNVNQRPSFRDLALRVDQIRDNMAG
ASSAY_COMMENT: phosphorylation enrichment, bacterial display (enrichment ratio); higher = better substrate or ligand; peptides without Tyr show the background
Label Y when phosphorylation enrichment is at or above 0.7; otherwise label N.

Check out these entries, answers already filled in.
CHAIN_SEQUENCE | SUBJECT_OF_TEST | LABEL
VMAALYGRLYE [BTD_Y536_T532M] | Jak2 (UniProt O60674) | Y
PGPPGYCDSSH [COL12A1_Y3043_Q3048H] | Jak2 (UniProt O60674) | Y
KMMGRYEMFAR [UPB1_Y362_T359M_YF] | Jak2 (UniProt O60674) | N
LSNPAYCLLLA [DDR1_Y513_R514C] | Jak2 (UniProt O60674) | Y
GRRNTYYASIA [ACADM_Y352] | Jak2 (UniProt O60674) | Y

Decide: is the reported value of phosphorylation enrichment for EFISEFCGEII [EZH2_Y641_Y641F] equal to or greater than 0.7? Y

###

SUBJECT_OF_TEST: FGFR3 (UniProt P22607)
Sequence (P22607 whole entry, looked up): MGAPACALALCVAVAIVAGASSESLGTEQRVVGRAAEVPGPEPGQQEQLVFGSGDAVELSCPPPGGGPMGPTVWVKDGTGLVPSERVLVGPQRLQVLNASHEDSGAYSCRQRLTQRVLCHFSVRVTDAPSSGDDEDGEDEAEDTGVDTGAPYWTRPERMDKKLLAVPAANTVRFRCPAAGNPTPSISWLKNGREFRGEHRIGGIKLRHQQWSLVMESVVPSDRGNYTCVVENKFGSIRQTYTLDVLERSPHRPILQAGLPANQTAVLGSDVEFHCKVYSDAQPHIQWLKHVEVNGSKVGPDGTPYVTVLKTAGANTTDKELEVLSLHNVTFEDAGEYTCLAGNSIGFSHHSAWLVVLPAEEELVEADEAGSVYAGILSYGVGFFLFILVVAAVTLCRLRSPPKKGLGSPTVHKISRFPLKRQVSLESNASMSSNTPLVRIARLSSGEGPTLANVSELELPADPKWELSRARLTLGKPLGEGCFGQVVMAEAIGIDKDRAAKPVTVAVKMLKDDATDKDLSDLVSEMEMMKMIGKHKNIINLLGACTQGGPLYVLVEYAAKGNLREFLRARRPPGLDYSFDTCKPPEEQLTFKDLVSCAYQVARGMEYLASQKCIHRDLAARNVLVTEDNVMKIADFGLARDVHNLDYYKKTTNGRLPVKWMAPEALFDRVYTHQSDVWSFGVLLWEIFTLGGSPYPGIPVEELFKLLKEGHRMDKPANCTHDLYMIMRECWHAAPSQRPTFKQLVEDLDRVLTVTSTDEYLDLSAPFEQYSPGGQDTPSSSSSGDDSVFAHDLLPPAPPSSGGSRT
ASSAY_COMMENT: phosphorylation enrichment, bacterial display (enrichment ratio); higher = better substrate or ligand; peptides without Tyr show the background
Assign phosphorylation enrichment to each entry below.
Answers are plain numbers.

Guide cases for phosphorylation enrichment, answers given:
CHAIN_SEQUENCE | SUBJECT_OF_TEST | PROPERTY | RESULT_VALUE
EQLLDYTRTVQ [INPP5E_Y439_R435Q] | FGFR3 (UniProt P22607) | phosphorylation enrichment | 0.709
PLKYLYPNIDK [STAT1_Y668] | FGFR3 (UniProt P22607) | phosphorylation enrichment | 0.614
KMMGRYEMFAR [UPB1_Y362_T359M_YF] | FGFR3 (UniProt P22607) | phosphorylation enrichment | 0.445
PEEKVYLSRGD [CRACR2A_Y141_H136P] | FGFR3 (UniProt P22607) | phosphorylation enrichment | 1.29
FVSIVYNDSGE [TSC2_Y1650] | FGFR3 (UniProt P22607) | phosphorylation enrichment | 0.725

Provide each entry's phosphorylation enrichment from the list below.
1. ETVHRYVELLD [AP1S3_Y87_I83T]
2. QYNPEYVQQAS [LRRC7_Y1058_H1054Y]
3. FEPWVYSLSFE [PRKDC_Y647_F649L_YF]
4. FSEVRYVKEPF [HIPK4_Y170_YF]
5. TPRNTYKMTSV [MKI67_Y849_L854V]
6. SQSKGYRPKLY [SIPA1L3_Y1376_G1371S]
7. KEAQVYQAFKL [SUCLG2_Y343]
8. TGHKGYVAFLE [CARD9_Y76]

0.746
1.05
0.839
0.884
0.474
0.33
0.603
0.507

Provide each entry's phosphorylation enrichment from the list below.
1. FQCKHYACIRQ [TIMP3_Y182_S179C_YF]
2. TVEDHDFEGGI [TKT_Y563_Y563D_YF]
3. MSNSAYVKREV [SCN1A_Y1694_F1692S]
4. VKYLGYPPPEI [KDR_Y357_A352V]
5. ARAGEYGAEAL [HBA1_Y25_H21R]
6. ATARPYRPFII [LRP5_Y1528_YF]
7. SKNFTYIWWLN [PSG4_Y271_YF]

1: 0.501; 2: 0.873; 3: 0.46; 4: 0.626; 5: 0.524; 6: 0.566; 7: 0.884

Provide each entry's phosphorylation enrichment from the list below.
1. QLDQRYLLVPE [DDX49_Y223]
2. PLDGEYFSLQI [TP53_Y327_T329S]
3. AVLALHNSTRD [TGFB1_Y81_Y81H]
4. MANFVYKAGPS [MAML2_Y515_M514V_YF]
5. LDMSQYFRLFN [CPT2_Y217]
6. VVKLAYNENDN [CAMKK2_Y183]
7. HNVPICEGYAL [ACTC1_Y168_Y168C]
8. IDGLEYLHSQS [STK11_Y166_G171S]

[0.799, 4.26, 0.387, 0.469, 1.62, 0.672, 0.841, 0.597]

###

SUBJECT_OF_TEST: EPHB1 (UniProt P54762)
Sequence (P54762 whole entry, looked up): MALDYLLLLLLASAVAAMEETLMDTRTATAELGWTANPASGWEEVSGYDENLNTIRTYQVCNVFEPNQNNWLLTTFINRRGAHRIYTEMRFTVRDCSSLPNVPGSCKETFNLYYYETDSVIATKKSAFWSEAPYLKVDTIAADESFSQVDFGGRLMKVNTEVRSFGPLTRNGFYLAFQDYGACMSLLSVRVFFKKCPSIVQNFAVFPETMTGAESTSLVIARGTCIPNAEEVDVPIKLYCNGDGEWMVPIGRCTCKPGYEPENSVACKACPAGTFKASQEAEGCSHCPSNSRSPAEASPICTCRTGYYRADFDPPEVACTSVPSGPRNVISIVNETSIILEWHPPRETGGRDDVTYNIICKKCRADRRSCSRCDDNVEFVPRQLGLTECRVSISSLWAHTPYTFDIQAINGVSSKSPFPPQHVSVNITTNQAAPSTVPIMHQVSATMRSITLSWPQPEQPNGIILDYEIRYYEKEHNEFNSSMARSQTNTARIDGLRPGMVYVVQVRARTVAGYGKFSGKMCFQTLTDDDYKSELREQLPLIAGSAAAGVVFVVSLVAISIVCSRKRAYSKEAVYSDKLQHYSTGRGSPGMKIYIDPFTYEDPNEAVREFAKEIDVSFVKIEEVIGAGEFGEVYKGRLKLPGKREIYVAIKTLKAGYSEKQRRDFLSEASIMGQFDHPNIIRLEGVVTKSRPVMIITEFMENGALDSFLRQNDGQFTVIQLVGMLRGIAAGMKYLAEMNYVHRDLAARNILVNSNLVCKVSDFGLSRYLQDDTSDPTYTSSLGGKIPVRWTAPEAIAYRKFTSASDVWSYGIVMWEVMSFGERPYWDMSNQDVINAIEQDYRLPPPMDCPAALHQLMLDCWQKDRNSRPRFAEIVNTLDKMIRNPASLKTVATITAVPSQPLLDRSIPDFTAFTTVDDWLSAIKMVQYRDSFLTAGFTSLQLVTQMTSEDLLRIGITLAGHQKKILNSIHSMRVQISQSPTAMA
ASSAY_COMMENT: phosphorylation enrichment, bacterial display (enrichment ratio); higher = better substrate or ligand; peptides without Tyr show the background
Group membership follows phosphorylation enrichment per the scheme bottom bin: < 0.5; middle bin: ≥ 0.5 and < 0.6; top bin: ≥ 0.6

CHAIN_SEQUENCE | SUBJECT_OF_TEST | LABEL
QQLQGYIPSNY [FRK_Y99] | EPHB1 (UniProt P54762) | bottom bin
YKGKNYKPLDL [RPL35_Y78_K77N] | EPHB1 (UniProt P54762) | bottom bin
SKKSTYQALLD [GANC_Y43] | EPHB1 (UniProt P54762) | bottom bin
VVKLAYNENDN [CAMKK2_Y183] | EPHB1 (UniProt P54762) | bottom bin
RLLVVYPWTQK [HBG1_Y36_R41K] | EPHB1 (UniProt P54762) | middle bin
CPFNLYAEQLS [HGD_Y40_YF] | EPHB1 (UniProt P54762) | top bin
GLIPAYHRVIM [NMNAT1_Y64] | EPHB1 (UniProt P54762) | middle bin
NKVKFYIPFMN [NCR1_Y84_D87Y_YF] | EPHB1 (UniProt P54762) | middle bin
CPPKVYELMIA [ABL2_Y515_R519I] | EPHB1 (UniProt P54762) | top bin
PLKFLYPNIDK [STAT1_Y668_YF] | EPHB1 (UniProt P54762) | top bin

Hello team, could you let me know which band the following sequence falls into: ELCSEYRKSRK [SPINK5_Y440] bottom bin

Lookup AIMSFYAALID [RYR1_Y2426] top bin

Lookup LSALDYKIFYY [WDPCP_Y210] top bin

Lookup HSGVSYFINLC [IGF2R_Y2024_N2020S_YF] top bin

Lookup PLSGEYFTLQI [TP53_Y327_D324S] top bin

Lookup ESAAIYNPVIY [RHO_Y301_K296E] top bin

Lookup TGHKGYVAFLE [CARD9_Y76] bottom bin

Lookup EEQKKYYNATK [SCN5A_Y1494_M1498T] middle bin

Lookup NLPGGYSGSVK [MCPH1_Y606] bottom bin

Lookup KKCTRYIDCDL [ASPA_Y64] bottom bin

Lookup ASFGPNTRVQS [FOXL2_Y258_Y258N_YF] bottom bin

Lookup RRESPYGGGGG [FUS_Y526_R524S] bottom bin

Lookup LLVVLYKFRCF [PSEN1_Y154_Y159F_YF] top bin

Lookup VHSGTYQVTVC [MYBPC3_Y1043_R1048C] top bin

Lookup SLALFYRKVFH [RBL1_Y792_YF] top bin
